FYI, the data here is from patent US20210284749A1.

Molecular target: T1, human BCMA-Fc/His (1-51) (human, UniProt Q02223 1-51)
T1 construct: also called recombinant human BCMA-Fc/His; recombinant human BCMA-His (Sino Biological Inc.); not shown: Fc region; C-terminal His tag
T1 sequence: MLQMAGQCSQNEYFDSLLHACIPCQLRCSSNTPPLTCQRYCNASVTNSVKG
Test: BLI (Octet), antigen on Ni-NTA biosensor, IgG in solution
Readout name: koff (s⁻¹)
The reply should be a number in s⁻¹, with the unit left off.

| Binder | koff, s⁻¹ |
| --- | --- |
| anti-BCMA IgG antibody 2G (antibody, V domains shown) VH: EVQLVESGGGLVQPGGSLRLSCAASGFTFSNYAMSWVRQAPGKGLEWVSAISSSGSTIYYADSVKGRFTISRDNSKNTLYLQMNSLRAEDTAVYYCAKAGYYGSIYAFDYWGQGTLVTVSS VL: DIQMTQSPSSLSASVGDRVTITCRASQSISSYLNWYQQKPGKAPKLLIYATSRLQSGVPSRFSGSGSGTDFTLTISSLQPEDFATYYCQQSSSFPWTFGQGTKVEIKR | 0.00078 |

koff reading for anti-BCMA IgG antibody B58 (antibody, V domains shown, also called B58 antibody) VH: EVQLLESGGGLVQPGGSLRLSCAASGFTFSNYDMSWVRQAPGKGLEWVSWIYPSDSSIYYADSVKGRFTISRDNSKNTLYLQMNSLRAEDTAVYYCARGPFANKYRQFDYWGQGTLVTVSS VL: QSVLTQPPSASGTPGQRVTISCSGSSSNIGSNSVSWYQQLPGTAPKLLIYADSKRPSGVPDRFSGSKSGTSASLAISGLRSEDEADYYCGSWDYSLSGYVFGGGTKLTVL : 2e-05

Looking up anti-BCMA IgG antibody 2F8 (antibody, V domains shown) VH: EVQLLESGGGLVQPGGSLRLSCAASGFTFSNYGMSWVRQAPGKGLEWVSEIIPIFDTSNYAQKFQGRFTISRDNSKNTLYLQMNSLRAEDTAVYYCAKIPGNRHDYWGQGTLVTVSS VL: QSVLTQPPSASGTPGQRVTISCTRMQRQSDWYQQLPGTAPKLLIYDNNKRPLGVPDRFSGSKSGTSASLAISGLRSEDEADYYCQSYDSNAYVVFGGGTKLTVLG , I see its koff listed as 0.0152

The binder listed as anti-BCMA IgG antibody 5D5 (antibody, V domains shown, also called 5D5 WT; 5D5 antibody) VH: EVQLLESGGGLVQPGGSLRLSCAASGFTFSDYGLSWVRQAPGKGLEWVSLIDSSGSSTFYADSVKGRFTISRDNSKNTLYLQMNSLRAEDTAVYYCAKEHGLFDSWGQGTLVTVSS VL: EIVLTQSPGTLSLSPGERATLSCKASQDIDDDINWYQQKPGQAPRLLIYDASLRATGIPDRFSGSGSGTDFTLTISRLEPEDFAVYYCQQSLRTPITFGQGTKLEIKR shows koff equal to 0.000105
